# Measured target: mu opioid receptor peptide Mu OPR 111–122 (Homo sapiens, UniProt P35372)
# Construct: Mu OPR 111–122; purchased RS Synthesis (Louisville, KY, USA); host or cells: chemical synthesis
# Assay: biochemical
# Format: binding
Observation type: Kd (µM)
# unit: µM | format: bare number

Value lookup for Kd; key = CNC[C@H](O)c1cccc(O)c1 150

----------
# Measured target: histamine 1 receptor peptide H1HR 105–108 SMDY (Homo sapiens)
# Construct: H1HR 105–108 SMDY; purchased RS Synthesis (Louisville, KY, USA); host or cells: chemical synthesis
# Assay: biochemical
# Type: binding
# Conditions used: read-out: Kd (µM) H1HR 105–108 SMDY
The entries below are paired with their reported Kd.
Field: numeric (µM). Do not append units.

Return reported Kd; argument: O=C1OC(C(O)CO)C(=O)C1=O (centres unmarked) [Dehydro Asc, dehydroascorbic acid] 15

Continue with the molecule presented below.
Given the molecule CNC[C@H](O)c1cccc(O)c1 , what is its reported Kd? 50

The origin of these recorded values is paper PMC7504417.
